B1: CPEB3 Ribozyme (parent)
chain: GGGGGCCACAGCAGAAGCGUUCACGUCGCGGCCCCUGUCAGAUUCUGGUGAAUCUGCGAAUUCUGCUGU

Variants of: B1
Experimental details: self-cleavage, relative activity (ratio to wild type); higher = more cleavage; co-transcriptional
Collected self-cleavage values appear next to each entry.
Give only the figure.

May I ask what self-cleavage has been recorded for GGGGGCCACAGCAGAAGCGUUCACGUCGCGGCCCCUGUCAGAUUCUGGAGAAUCUGAGAAUUCUGCUGU [U49A C57A] ?
0.273

For GGGGGCCACAGCAGAACCGUUCACGUCGCGGACCCUGUCAGAUUCUGGUGAAUCUGCGAAUUCUGCUGU [G17C C32A] then?
0.113

For GGGGGCCACAGCAGAAGCGUUCACGUCGCGGCCCCUGUCAAAUUCUGGUGAAUCUGCGAAUUCUGCUCU [G41A G68C] then?
0.881

For GGGGGCCGCAGCAGAAGCGUUCACGUAGCGGCCCCUGUCAGAUUCUGGUGAAUCUGCGAAUUCUGCUGU [A8G C27A] then?
0.0861

For GGGGGCUACAGCAGAAGCGUUCACGUCGCGGCCCCUGUCGGAUUCUGGUGAAUCUGCGAAUUCUGCUGU [C7U A40G] then?
0.934

For GGGGGAAACAGCAGAAGCGUUCACGUCGCGGCCCCUGUCAGAUUCUGGUGAAUCUGCGAAUUCUGCUGU [C6A C7A] then?
0.143

For GGGGGCCACAGCAGAAGCGUUCACCUCGCGGCCCCUGUCAGAUUCUGGUGACUCUGCGAAUUCUGCUGU [G25C A52C] then?
0.182
